Recorded values, source the supplement of paper PMC12455559.

Quick reference for PET hydrolysis among some sequences
Assay: PET hydrolysis, aromatic products released after 48 h (umol product/mg enzyme); higher = more PET depolymerization activity
Details: substrate: aFilm; 40 °C; pH 6.5
Attribute measured: PET hydrolysis

residue_string="ADNPYQRGPDPTPASVSANRGTFATAQISVPAGNGFGGGVIYHPTDTSQGTFGAIAVVPGYTATWAAEGAWMGHWLASFGFVVIGIDTNSRNDWDTARGTQLLAALDYLTQRSPVRDRVDANRTAVMGHSMGGGGAMHAALQRPSLKAAIGLAPFSPSQNLTTTRVPTMLLAGQSDTTTTPASILNLYNGIPAATEKAYLELTGAGHGFPTSNNPTMMRNVIPWLKIFVDSDTRYTQFLCSLSNWDGIRAYQSTCPLVPSPVPTTTSTTSTTTTISTTTTTPAPGDACSATYRTTNSWPGGYQAEVTVTAGNTAVNGWNVQWTLGSGQTVTQVWNGTLNVSGSTASVRNASYNGSLQANTSTTFGFIGGGTPPTSSLSCTSP [ESM035]" result="< 3"
residue_string="ATTSFQRGPAPTTASIQATSGPFATSQTTVSRISVTGFGGGDIYYPTSTSSGTFGAVAIAPGYTALRSSMAWLAPRIASQGFVVFNIDTLTTSDQPATRGTELLAALDYLTTRSTVRTRIDTTRLAVMGHSMGGGGTLEAAKSRPSLQAAIPLTPWDLNKSFAGLAVPTLIIGAQADTVAPVSQHAKPFFTSLPSGLDKAYLELAGASHFAPNTSNTTIASISIAWLKRFVDDDTRYDQFLCPGPTVGTAVSQFTTNCPHIS [ESM156]" result="< 3"
residue_string="GETAQTTDVSAQSQFQRGPNPTVSSIEARTGHYRTSTTRVSSFASGFGGGTIYYPTTTSDGTFGGVAVAPGYTASSSTMDWLGPRIASQGFVVFVIDTNTRLDQPSSRGRQLLAALDYLTERSSERHRVDSNRLAVMGHSMGGGGALEATISRPSLKASIPLTPWNLTKNWSRVTTPTLIVGAENDSVASVRSHSIPFYTSLSSSTDRMYVELDGASHFAPNVSNTTIAKYSISWLKRFVDDDTRYDQFLCPLPNERAISDIRGNCPR [DP090]" result=5
residue_string="ADTPYERGPNPSESLIEQRRGNYDIAQRSISRFSSDGFRNGTIYYPTDTSDGKFGVIAISPGYTAGESSIAWLGSRIASFGFVVVTINTTTRYDQPRQRSTQLLAALDHAMNDSVVGPLIDPERQAVMGHSMGGGGALQAAESRPEIDAVVALTPWNLKKNWDGVDAATLIIGAERDTVASVRTHSIPFYESLTQAEQRGYLELRGASHFAPNVSNTTIAKYSIAWMKRYLDNDDRYDQFLNPGPAVGYASGVSDYRLQ [DP003]" result="< 3"
residue_string="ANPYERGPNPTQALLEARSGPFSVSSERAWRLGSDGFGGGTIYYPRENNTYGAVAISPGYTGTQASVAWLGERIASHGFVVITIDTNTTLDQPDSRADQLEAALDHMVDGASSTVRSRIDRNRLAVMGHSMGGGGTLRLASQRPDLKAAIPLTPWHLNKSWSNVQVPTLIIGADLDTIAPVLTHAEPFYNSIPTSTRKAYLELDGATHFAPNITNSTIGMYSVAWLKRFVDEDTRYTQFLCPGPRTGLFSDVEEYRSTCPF [TEP014]" result="< 3"
residue_string="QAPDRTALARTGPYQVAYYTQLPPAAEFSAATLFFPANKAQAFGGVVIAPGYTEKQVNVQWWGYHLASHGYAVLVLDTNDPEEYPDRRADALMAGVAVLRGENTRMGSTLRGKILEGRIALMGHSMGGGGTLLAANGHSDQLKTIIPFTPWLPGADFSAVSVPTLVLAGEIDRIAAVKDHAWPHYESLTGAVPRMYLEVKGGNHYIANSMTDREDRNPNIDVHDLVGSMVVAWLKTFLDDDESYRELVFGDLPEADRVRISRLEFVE [TEP006]" result="< 3"
residue_string="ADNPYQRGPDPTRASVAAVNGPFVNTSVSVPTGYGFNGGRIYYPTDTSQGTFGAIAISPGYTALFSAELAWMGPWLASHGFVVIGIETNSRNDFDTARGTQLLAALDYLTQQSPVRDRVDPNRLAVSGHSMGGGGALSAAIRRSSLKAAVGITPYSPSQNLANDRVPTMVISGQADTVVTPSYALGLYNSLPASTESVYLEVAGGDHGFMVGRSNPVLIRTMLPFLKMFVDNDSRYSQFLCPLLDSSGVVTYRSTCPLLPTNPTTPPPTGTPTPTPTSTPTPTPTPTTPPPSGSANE [ESM091]" result="< 3"
residue_string="ASPYERGPNPTAASVSATTGPFAIASVSVARGNGFGGGVIYYPTATNQGTFGGIAISPGLNGTWAGIAWLGPRLASQGFVVFGIETNNLNDSPTSRGTQLLAALDYLTQRSTVRTRVDAGRLAVMGHSMGGGGALDAALRRPSLQAAIGNAPHLPSGTLSNDRVPTMIYAMQNDTLVPPSRLTTLYNSIPATTERGYILVTGAGHNYIGQPSTTLARTMIPWFKIFIDDDTRYSQFLCPMSNQSGISQYRNSCPLS [ESM160]" result="< 3"
residue_string="ADNPYQRGPDPTAASIAAVTGPFATASVTVPRGNGFGGGVIYYPTDTSQGTFGGIAISPGLNGTWPGIAWLGPRLASQGFVVFGIETNNLNDSPTSRGTQLLAALDYLTGSSSVRTRVDAGRLAVAGHSMGGGGALDAALRRPSLRATIGNAPHLPSGSLANDRVPTLIYAMQNDTLVPPSRLTSLYNTVPATTERGYLEITGAGHNYIGQPSTILARTMIPWLKIFVDDDARYSQFLCPLTDRSGISQYQSSCPLITTSPTTGPTAQPTTAAPTTTPTTPPVGGPCEATHRTVNSWSGGYQGEVTVRAGSAAINGWTVSWTLGSGQTINQVWGGALTASGTAATVRNETWNGPVAAGASTTFGYIATGNAPTQPLACSAR [ESM060]" result=1.5
residue_string="AANPYERGPDPTDAILEAARGPFETSRTEVPALSVTGFGGGTIYYPATTSAGTFGGVAVAPGYTADRTSLAWLAERLASHGFVVFNIDTLTRLDQPDSRGRQLLAALDYLTQRSSVRGRLDAGRLGVMGHSMGGGGTLEAARDRPSLQAAVPLTPWDLTKIWSGVRVPTMIVGAEADTIAPVASHAEPFYQSLPSSPGKAYLELNNATHFAPNVPDTTIGKYVVAWMKRFVDDDTRYTRFLCPGPSGGLTVEEYRSTCPFS [TEP194]" result="< 3"
